Where these numbers come from: the RNAGym collection of RNA variant scans (doi:10.7554/elife.80360)

B1: HDV Ribozyme (parent)
chain: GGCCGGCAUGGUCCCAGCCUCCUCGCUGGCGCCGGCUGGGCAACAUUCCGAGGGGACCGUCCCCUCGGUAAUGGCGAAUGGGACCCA

Variants of: B1
Experiment: self-cleavage, relative activity (ratio to wild type); higher = more cleavage; co-transcriptional
Ranges used to classify self-cleavage: bottom range = under 0.2, center range = from 0.2 up to 0.6, top range = 0.6 and over

Answered cases to consult:
# MUTATION CODE, LABEL CLASS
rows = [
    ("G53C A77U", "top range"),
    ("G35A C57A", "center range"),
]

Hello team, could you let me know which band the following variant falls into: G6U G67C
top range

Lab note: which band did G31C A70U land in?
bottom range

Assign a category based on measured self-cleavage for C26A G80U and give only the class name.
center range

Lab note: which band did G38U G59A land in?
bottom range

Bin this entry: C7A G50U
center range

Assign a bin to C32A C44G
bottom range

Which band does C14A C41G fall in?
center range

Category lookup for the variant A51G U60G
top range

The entry to classify is A51U C85A ; which class holds it?
top range

Band of A42G U46A ?
center range

Which of the defined bands does the recorded self-cleavage of G10A G11A sit within?
bottom range

Form: Item = G55U A56C ; Class = ?
top range

Any idea which band A51U G76C is in?
top range

Hello team, could you let me know which band the following variant falls into: U20A G68C
bottom range

Dear colleague, I would appreciate it if you could identify the bin for G11C C75U and reply at your convenience.
bottom range

Looking at G2A G80A , which class would you pick?
bottom range

Band of G40A A77G ?
top range

Into which bin does this variant go? G74A C86G
center range

For this variant, which bin applies? G11C G53U
center range

# bin lookup: classify G34A G40U by its self-cleavage
bottom range

Would you mind sorting A8C C21U into the appropriate category?
bottom range

Using the reported self-cleavage, which band applies to U20C G29A ?
bottom range
